So I've got a bunch of compounds here, and I need their WBC values.
- Species on record: Rattus norvegicus
- procedure_text: Open TG-GATES - Regimen: Single
- Format: toxicity, organism-based, Sprague-Dawley
- Set-up: regimen Single, gender Male, age 6 weeks
- setup_conditions: in vivo, po, 0 mg/kg, 6 h, tissue Blood, route gavage, dose level Control
Give the value, in units of x10_2/uL, as a plain number.

// query WBC value for entry O=C1NC(=O)C(c2ccccc2)(c2ccccc2)N1 97.9

// query WBC value for entry S=C=Nc1cccc2ccccc12 [1-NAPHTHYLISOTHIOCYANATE] 106.9

// query WBC value for entry COc1ccc(Cl)cc1C(=O)NCCc1ccc(S(=O)(=O)NC(=O)NC2CCCCC2)cc1 [GLYBURIDE] 87.5

// query WBC value for entry CNCCC(Oc1ccc(C(F)(F)F)cc1)c1ccccc1.Cl (stereo unspecified) [FLUOXETINE HYDROCHLORIDE] 98.6

// query WBC value for entry Cc1cccc(Nc2cc(Cl)nc(SCC(=O)O)n2)c1C 95.9

// query WBC value for entry O=C1CN(/N=C/c2ccc(-c3ccc([N+](=O)[O-])cc3)o2)C(O)=N1 107.2

// query WBC value for entry C=CCO 115.2

// query WBC value for entry Cn1cnc([N+](=O)[O-])c1Sc1ncnc2nc[nH]c12 66

// query WBC value for entry CS(=O)(=O)Nc1ccc([N+](=O)[O-])cc1Oc1ccccc1 [NIMESULIDE] 109.3

// query WBC value for entry COc1ccc(O)c(C(C)(C)C)c1.COc1ccc(O)cc1C(C)(C)C [BUTYLATED HYDROXYANISOLE] 97.7

// query WBC value for entry Cc1cnc(NC(=O)C2=C(O)c3ccccc3S(=O)(=O)N2C)s1 110.7

----------
- Species on record: Rattus norvegicus
- procedure_text: Open TG-GATES - Regimen: Single
- Type: toxicity, organism-based, Sprague-Dawley
- Set-up: regimen Single, gender Male, age 6 weeks
- setup_conditions: in vivo, po, 0 mg/kg, 9 h, tissue Kidney, route gavage, dose level Control
recorded_metric: KIDNEY_TOTAL (g)
Give the value, in units of g, as a plain number.

// query KIDNEY_TOTAL value for entry O=C1CN(/N=C/c2ccc(-c3ccc([N+](=O)[O-])cc3)o2)C(O)=N1 [DANTROLENE] 1.8

// query KIDNEY_TOTAL value for entry O=C1NC(=O)C(c2ccccc2)(c2ccccc2)N1 [PHENYTOIN] 1.8

// query KIDNEY_TOTAL value for entry Cc1cnc(NC(=O)C2=C(O)c3ccccc3S(=O)(=O)N2C)s1 [MELOXICAM] 2.1

// query KIDNEY_TOTAL value for entry Cn1cnc([N+](=O)[O-])c1Sc1ncnc2nc[nH]c12 [AZATHIOPRINE] 1.9

// query KIDNEY_TOTAL value for entry CS(=O)(=O)Nc1ccc([N+](=O)[O-])cc1Oc1ccccc1 [NIMESULIDE] 1.9

// query KIDNEY_TOTAL value for entry COc1ccc(Cl)cc1C(=O)NCCc1ccc(S(=O)(=O)NC(=O)NC2CCCCC2)cc1 [GLYBURIDE] 1.9

// query KIDNEY_TOTAL value for entry COc1ccc(O)c(C(C)(C)C)c1.COc1ccc(O)cc1C(C)(C)C [BUTYLATED HYDROXYANISOLE] 1.7

// query KIDNEY_TOTAL value for entry CNCCC(Oc1ccc(C(F)(F)F)cc1)c1ccccc1.Cl (stereo unspecified) [FLUOXETINE HYDROCHLORIDE] 2

// query KIDNEY_TOTAL value for entry S=C=Nc1cccc2ccccc12 [1-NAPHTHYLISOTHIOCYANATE] 1.9

// query KIDNEY_TOTAL value for entry C=CCO [ALLYL ALCOHOL] 1.9

// query KIDNEY_TOTAL value for entry Cc1cccc(Nc2cc(Cl)nc(SCC(=O)O)n2)c1C [PIRINIXIC ACID] 1.7

----------
- Organism: Rattus norvegicus
- procedure_text: Open TG-GATES - Regimen: Single
- Format: toxicity, organism-based, Sprague-Dawley
- Design: regimen Single, gender Male, age 6 weeks
- setup_conditions: in vivo, po, 0 mg/kg, 6 h, tissue Plasma, route gavage, dose level Control
So I've got a bunch of molecules here, and I need their TC values.
Give the value, in units of mg/dL, as a plain number.

// query TC value for entry Cc1cnc(NC(=O)C2=C(O)c3ccccc3S(=O)(=O)N2C)s1 74.8

// query TC value for entry Cc1cccc(Nc2cc(Cl)nc(SCC(=O)O)n2)c1C 75.8

// query TC value for entry COc1ccc(O)c(C(C)(C)C)c1.COc1ccc(O)cc1C(C)(C)C [BUTYLATED HYDROXYANISOLE] 73.8

// query TC value for entry O=C1NC(=O)C(c2ccccc2)(c2ccccc2)N1 77.8

// query TC value for entry Cn1cnc([N+](=O)[O-])c1Sc1ncnc2nc[nH]c12 77.6

----------
- Organism: Rattus norvegicus
- procedure_text: Open TG-GATES - Regimen: Daily Repeat
- Format: toxicity, organism-based, Sprague-Dawley
- Set-up: regimen Daily Repeat, gender Male, age 6 weeks
- setup_conditions: in vivo, po, 0 mg/kg, […], tissue Plasma, route gavage, dose level Control, time 28 day
recorded_metric: Na (meq/L)
Give the value, in units of meq/L, as a plain number.

// query Na value for entry O=C1CN(/N=C/c2ccc(-c3ccc([N+](=O)[O-])cc3)o2)C(O)=N1 140

// query Na value for entry CS(=O)(=O)Nc1ccc([N+](=O)[O-])cc1Oc1ccccc1 [NIMESULIDE] 143.8

// query Na value for entry C=CCO 140.6

// query Na value for entry Cc1cnc(NC(=O)C2=C(O)c3ccccc3S(=O)(=O)N2C)s1 140.8

// query Na value for entry O=P1(N(CCCl)CCCl)NCCCO1 (stereo not given) [CYCLOPHOSPHAMIDE ANHYDROUS] 144

// query Na value for entry O=C1NC(=O)C(c2ccccc2)(c2ccccc2)N1 142.4

// query Na value for entry Cn1cnc([N+](=O)[O-])c1Sc1ncnc2nc[nH]c12 141.4

// query Na value for entry Cc1cccc(Nc2cc(Cl)nc(SCC(=O)O)n2)c1C 144.2

// query Na value for entry COc1ccc(O)c(C(C)(C)C)c1.COc1ccc(O)cc1C(C)(C)C [BUTYLATED HYDROXYANISOLE] 143.2

// query Na value for entry COc1ccc(Cl)cc1C(=O)NCCc1ccc(S(=O)(=O)NC(=O)NC2CCCCC2)cc1 [GLYBURIDE] 141.2

----------
- Organism: Rattus norvegicus
- procedure_text: Open TG-GATES - Regimen: Single
- Assay type: toxicity, organism-based, Sprague-Dawley
- Set-up: regimen Single, gender Male, age 6 weeks
- setup_conditions: in vivo, po, 0 mg/kg, 24 h, tissue Plasma, route gavage, dose level Control
recorded_metric: RALB (g/dL)
Give the value, in units of g/dL, as a plain number.

// query RALB value for entry COc1ccc(O)c(C(C)(C)C)c1.COc1ccc(O)cc1C(C)(C)C [BUTYLATED HYDROXYANISOLE] 2.6

// query RALB value for entry CS(=O)(=O)Nc1ccc([N+](=O)[O-])cc1Oc1ccccc1 [NIMESULIDE] 4.1

// query RALB value for entry O=C1NC(=O)C(c2ccccc2)(c2ccccc2)N1 2.6

// query RALB value for entry O=C1CN(/N=C/c2ccc(-c3ccc([N+](=O)[O-])cc3)o2)C(O)=N1 3.7

// query RALB value for entry Cn1cnc([N+](=O)[O-])c1Sc1ncnc2nc[nH]c12 3.1

// query RALB value for entry Cc1cccc(Nc2cc(Cl)nc(SCC(=O)O)n2)c1C 2.6

----------
- Organism: Rattus norvegicus
- procedure_text: Open TG-GATES - Regimen: Daily Repeat
- Type: toxicity, organism-based, Sprague-Dawley
- Parameters: regimen Daily Repeat, gender Male, age 6 weeks
- setup_conditions: in vivo, po, 0 mg/kg, […], tissue Plasma, route gavage, dose level Control, time 28 day
So I've got a bunch of compounds here, and I need their A/G values.
Give the figure by itself; no unit, no explanation.

// query A/G value for entry COc1ccc(Cl)cc1C(=O)NCCc1ccc(S(=O)(=O)NC(=O)NC2CCCCC2)cc1 [GLYBURIDE] 1.5

// query A/G value for entry Cn1cnc([N+](=O)[O-])c1Sc1ncnc2nc[nH]c12 [AZATHIOPRINE] 1.1

// query A/G value for entry C=CCO [ALLYL ALCOHOL] 1.3

// query A/G value for entry COc1ccc(O)c(C(C)(C)C)c1.COc1ccc(O)cc1C(C)(C)C [BUTYLATED HYDROXYANISOLE] 0.7

----------
- Species: Rattus norvegicus
- procedure_text: Open TG-GATES - Regimen: Daily Repeat
- Assay type: toxicity, organism-based, Sprague-Dawley
- Set-up: regimen Daily Repeat, gender Male, age 6 weeks
- setup_conditions: in vivo, po, 0 mg/kg, […], tissue Blood, route gavage, dose level Control, time 28 day
recorded_metric: Ht (%)
Give the value, in units of %, as a plain number.

// query Ht value for entry COc1ccc(O)c(C(C)(C)C)c1.COc1ccc(O)cc1C(C)(C)C [BUTYLATED HYDROXYANISOLE] 41.8

// query Ht value for entry COc1ccc(Cl)cc1C(=O)NCCc1ccc(S(=O)(=O)NC(=O)NC2CCCCC2)cc1 [GLYBURIDE] 43.1

// query Ht value for entry O=C1CN(/N=C/c2ccc(-c3ccc([N+](=O)[O-])cc3)o2)C(O)=N1 46.2

// query Ht value for entry C=CCO 45.2

// query Ht value for entry Cn1cnc([N+](=O)[O-])c1Sc1ncnc2nc[nH]c12 44.8
